The reported numbers originate from patent US7041810B2.

Target: wild-type alpha-2BAR (Homo sapiens, UniProt P18089)
Sequence (P18089 whole entry): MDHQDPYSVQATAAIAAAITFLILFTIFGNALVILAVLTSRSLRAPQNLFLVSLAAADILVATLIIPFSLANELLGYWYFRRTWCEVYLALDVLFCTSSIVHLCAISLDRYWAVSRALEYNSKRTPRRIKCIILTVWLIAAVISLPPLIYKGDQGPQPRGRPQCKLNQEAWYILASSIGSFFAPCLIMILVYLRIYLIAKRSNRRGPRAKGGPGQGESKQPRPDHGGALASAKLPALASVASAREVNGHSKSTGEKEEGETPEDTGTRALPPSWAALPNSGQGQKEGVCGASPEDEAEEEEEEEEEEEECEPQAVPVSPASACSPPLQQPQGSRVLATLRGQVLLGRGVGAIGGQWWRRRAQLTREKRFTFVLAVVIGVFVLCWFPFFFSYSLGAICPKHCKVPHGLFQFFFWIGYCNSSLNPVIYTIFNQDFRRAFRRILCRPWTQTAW

Compound: Nc1cc(Cl)c(NC2=NCCN2)c(Cl)c1I [[^125I]-aminoclonidine, aminoclonidine]
Target Entity: wild-type alpha-2BAR (Homo sapiens, UniProt P18089)
Kd: 1.33 nM

* * *

Target: wild-type alpha-2BAR (Homo sapiens, UniProt P18089)
Test: Inhibition of forskolin stimulated adenylyl cyclase and desensitization, CHO membranes

Compound: NC[C@H](O)c1ccc(O)c(O)c1 [norepinephrine]
EC50 [nM]: 7.9

* * *

Molecular target: Lys251 alpha-2AAR (Homo sapiens, UniProt P08913, N266K)
Sequence (P08913 16-465 N266K): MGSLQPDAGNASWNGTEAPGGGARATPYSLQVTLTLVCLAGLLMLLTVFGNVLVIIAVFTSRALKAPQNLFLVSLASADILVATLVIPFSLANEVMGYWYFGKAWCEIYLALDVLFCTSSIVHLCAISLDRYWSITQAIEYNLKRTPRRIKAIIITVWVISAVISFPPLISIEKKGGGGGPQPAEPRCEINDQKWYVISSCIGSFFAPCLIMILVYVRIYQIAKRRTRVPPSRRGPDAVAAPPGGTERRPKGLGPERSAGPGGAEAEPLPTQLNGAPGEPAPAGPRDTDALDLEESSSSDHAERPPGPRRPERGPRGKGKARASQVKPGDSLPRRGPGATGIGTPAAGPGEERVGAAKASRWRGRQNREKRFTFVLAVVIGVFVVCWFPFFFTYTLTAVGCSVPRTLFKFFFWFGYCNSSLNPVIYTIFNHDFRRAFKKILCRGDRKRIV
Assay: [35S]GTPγS binding, membranes of COS-7 cells coexpressing Giα2
Format: biochemical
Set-up: expressed in transfected cells; membranes or intact cells
Conditions: 10 μM agonist
A collection of compounds and their measured enhanced [35S]GTPγS binding for Lys251 as compared to the Asn251 receptor
Parameter: enhanced [35S]GTPγS binding for Lys251 as compared to the Asn251 receptor

Compound: N=C(N)N/N=C/c1c(Cl)cccc1Cl
Reported Value: 72%
--
Compound: CCN1CCc2nc(N)oc2CC1
Reported Value: 45%
--
Compound: Brc1c(NC2=NCCN2)ccc2nccnc12
Reported Value: ~40%
--
Compound: NC[C@H](O)c1ccc(O)c(O)c1 [norepinephrine]
Reported Value: ~40%
